Study system: Acetylcholinesterase (Rattus norvegicus)
Sequence (P37136 whole entry): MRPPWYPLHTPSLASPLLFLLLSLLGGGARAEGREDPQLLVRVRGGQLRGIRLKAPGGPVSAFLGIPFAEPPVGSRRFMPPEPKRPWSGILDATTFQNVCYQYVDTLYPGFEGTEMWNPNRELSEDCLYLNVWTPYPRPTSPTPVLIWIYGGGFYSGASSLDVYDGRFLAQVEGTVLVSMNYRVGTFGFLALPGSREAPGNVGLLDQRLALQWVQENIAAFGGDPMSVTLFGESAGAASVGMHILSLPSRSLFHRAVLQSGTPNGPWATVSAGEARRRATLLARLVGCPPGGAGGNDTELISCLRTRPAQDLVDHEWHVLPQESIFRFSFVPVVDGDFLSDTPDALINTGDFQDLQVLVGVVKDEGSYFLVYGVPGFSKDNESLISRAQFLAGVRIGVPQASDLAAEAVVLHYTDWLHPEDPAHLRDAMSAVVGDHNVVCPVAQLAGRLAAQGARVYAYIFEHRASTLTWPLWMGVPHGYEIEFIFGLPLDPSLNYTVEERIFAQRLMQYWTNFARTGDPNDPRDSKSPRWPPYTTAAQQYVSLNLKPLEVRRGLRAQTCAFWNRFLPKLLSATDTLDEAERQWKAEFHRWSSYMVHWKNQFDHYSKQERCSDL
pIC50: −log10 of the molar value.
Form field: pIC50 (one value per entry).

{"columns": ["Compound", "pIC50"],
 "data": [
  ["O=C(CCC1CCN(Cc2ccccc2Cl)CC1)c1ccc2c(c1)CCN2", 7.12],
  ["O=C(CCC1CCN(Cc2ccc(F)cc2)CC1)c1ccc2c(c1)CCN2", 7.05],
  ["O=C(CCC1CCN(Cc2cccc(Cl)c2)CC1)c1ccc2c(c1)CCCN2Cc1ccccc1", 6.79],
  ["O=C(CCC1CCN(Cc2ccccc2)CC1)c1ccc2c(c1)NCCCC2 [ZANAPEZIL]", 7.01]
]}

Reference for the values: ChEMBL document CHEMBL1127586
